Each entry below carries its recorded fold difference in affinity vs parental.
- Assayed System: T1, IL-1beta (UniProt P01584 117-269)
- T1 construct: also called IL-1β
- Procedure Text: Biacore
Supply the numeric figure in fold, leaving out any unit text.

Use the examples below as a reference point.
1. XPA23 Fab, heavy chain Y107K (Fab, V domains shown) VH: EVQLLESGGGLVQPGGSLRLSCAASGFTFSKYFMFWVRQAPGKGLEWVSVISPSGGMTRYADSVKGRFTISRDNSKNTLYLQMNSLRAEDTAVYYCARVGYGGNSDKWGQGTLVTVSS VL: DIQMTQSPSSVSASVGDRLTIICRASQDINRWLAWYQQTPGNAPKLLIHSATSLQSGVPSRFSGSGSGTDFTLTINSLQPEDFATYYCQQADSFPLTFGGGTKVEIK
0.82
2. XPA23 Fab, heavy chain F33S (Fab, V domains shown) VH: EVQLLESGGGLVQPGGSLRLSCAASGFTFSKYSMFWVRQAPGKGLEWVSVISPSGGMTRYADSVKGRFTISRDNSKNTLYLQMNSLRAEDTAVYYCARVGYGGNSDYWGQGTLVTVSS VL: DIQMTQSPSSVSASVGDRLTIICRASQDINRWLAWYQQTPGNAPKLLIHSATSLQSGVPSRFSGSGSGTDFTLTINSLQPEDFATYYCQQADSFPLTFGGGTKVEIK
0.73

Now consider a different binder.
XPA23 Fab, heavy chain T58F (Fab, V domains shown) VH: EVQLLESGGGLVQPGGSLRLSCAASGFTFSKYFMFWVRQAPGKGLEWVSVISPSGGMFRYADSVKGRFTISRDNSKNTLYLQMNSLRAEDTAVYYCARVGYGGNSDYWGQGTLVTVSS VL: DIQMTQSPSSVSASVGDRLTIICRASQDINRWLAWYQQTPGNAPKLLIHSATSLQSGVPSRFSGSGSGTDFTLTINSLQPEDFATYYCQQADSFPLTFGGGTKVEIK has a reported fold difference in affinity vs parental of 1.04
